The measured values listed here are drawn from the nanobody polyreactivity screen of Harvey et al. (2022).

experiment: yeast display, Sf9 membrane polyspecificity reagent, FACS + sequencing; frameworks hold sequencing errors
measurement-name: polyreactivity (PSR sort gate)

sequence-input: QVQLVESGGGLVLARGTLRLSCPASGFTFSRYAMGWYRQAPGKERELVAAISRTGGRTYYADSVKGRFTISRDNAKNTVYLQMNSLKPVDTAVYYCARLPVHSHLRQTYAMEYWGQGTQVTVSS
result: high polyreactivity
//
sequence-input: QVQLVESGGGLVQAGGSLRLSCAASGSTFVGYVMGWSRQAPGKERELVAAITRSGTSTYYADSVKGRFTISRDNAKNTVYLQMNSLKPEDTAVYYCARRYVSSDYYYWGQGTQVTVSS
result: low polyreactivity
//
sequence-input: QVQLVESGGGLVQAGGSLRLSCAASGFIFQRNAMGWYRQAPGKERELVAAIRGTGGSTYYADSVKGRFTISRDNAKNTVYLQMNSLKPEDTAVYYCNRLSSYHMDYWGQGTQVTVSS
result: high polyreactivity
//
sequence-input: QVQLVESGGGLVQAGGSLRLSCAASGRTFTYNAMGWYRQAPGKERELVAAISSSGGRTYYADSVKGRFTISRDNAKNTVYLQMNSLKPEDTAVYYCNKVKYRFSPPGYDYWGQGTQVTVSS
result: high polyreactivity
//
sequence-input: QVQLVESGGGLVQAGGSLRLSCAASGSICYSYAMGWYRQAPWKEREFVATISDSSGSTYYADSVKGRFTISRDYATNTVYLQMNSLKPEDSAVYYCATTDSYGYYGYGYWGQGTQVTVSS
result: low polyreactivity
//
sequence-input: QVQLVESGGGLVQAGGSLRLSCAASGSIFSSYAMGWYRQAPGKERELVASISRRGGSTYYADSVKGRFTISRDKAKNTVYLQMNSLKPEDTAVYYCTASGGPYRYYYWGQGTQVTVSS
result: low polyreactivity
//
sequence-input: QVQLVESGGGLVQAGGSLRLSCAASGRNFGRYAMGCYRQAPGKERELVAAITGRGASTYYADSVKGRFTISRDNAKHTVYLQMNSLKPEDTAVYYCNAFRGAQGTDAYDWGQGTQVPVSS
result: low polyreactivity
//
sequence-input: QVQLVESGGGLVQAGGSLRLSCAASGSTIVYYAMGWYIQAPGKERELVAAITSGGSTYDADSVKGRCTISRDNAKNTVYLQMNSQKPEDTAVYYCHADWWRGDEAYRMYYWGQGTQVTVSS
result: low polyreactivity
//
sequence-input: QVQLVESGGGLVQAGGSLRLSCAASGLTFNVYAMGWYRQAPGKERELVASITKRGGSTYYADSVKGRFTISRDNAKNTVYLEMNSLKPEDTAVYYCAADGLTGSKYRATGYYWGQGTQVTVSS
result: high polyreactivity
//
sequence-input: QVQLVESGGGLVQAGGSLRLSCAASGRTLWSYTMGWYRQAPGKERELVARITIGGSTNYADSVKGRFTISRDNAKNTVYLQMNSLKPEDTAVYYCNARASYSYGSYLSKSYGFDYWGQGTQVTVSS
result: high polyreactivity
//
sequence-input: QVQLVESGGGLVQAGGSLRLSCAASGSIFQPYAMGWYRQAPGKERELVAAITNGGSTYYADSVKGRFTISRDNAKNTVYLQMNSLKPEDTAVYYCAADVQSSHEYDYWGQGTQVTVSS
result: low polyreactivity

====

experiment: yeast display, Sf9 membrane polyspecificity reagent, FACS + sequencing; frameworks hold sequencing errors

sequence-input: QVQLVESGGGLVQAGGSLRLSCAASGITFDDYDMGWYIQAPGKEREFVAAISFSGSSTYYADSVKGRFTISRDNAKNTVYLQMNSLKPEDTAVYYCAAVTTGTITSKYNYWGQGTQVTVSS
polyreactivity (PSR sort gate): low polyreactivity

sequence-input: QVQLVESGGCLVQAGGSLRLSCAASGSIFTRYAMGWYRQAPGKERELVADIRWGGGDTYYADSVKGRFTISRDNAKNTVYLQMNSLKPEDTAVYYCNADFGAPNTGRPEVQNSDEFGYWGQGTQVTVSS
polyreactivity (PSR sort gate): low polyreactivity

sequence-input: QVQLVESGGGLVQAGGSLRLSCAASGRTFSVNAMGWYRQAPGKEREFVAAITGSTGSTFYADSVKGRFTISRDNAKNSVYLQMNSLKPDDTAVYYCAAGPWFYYWGQGTQVTVSS
polyreactivity (PSR sort gate): low polyreactivity

sequence-input: QVQLVESGGGLVQAGGSLRLSCAASGSTLYYNAMGWYRQAPGKERELVAAISWSGGSTYYADSVKGRFTISRDNAKNTVYLQMNSLKPEDTAVYYCAAELSSYYDYDYWGQGTQVTVSS
polyreactivity (PSR sort gate): low polyreactivity

sequence-input: QVQLVDSGGGLVQAGGSLRITCAASVLTFRRNPMGWYRQAPGKARELLGTITSGGSTNYADTVKGRFTISRDNAKNTVYLQMNSLKPEDTAVYYCNSVHLRIMYYWGQGTQVTVSS
polyreactivity (PSR sort gate): high polyreactivity

sequence-input: QVQLVESGGGLVQAGGSLRLSSAASGSTFVVNAMGWYRQAPGKERELVAAITQSGGSTFYADSVKGRFTISRDNAKNTVYLQMNSLKPEDTAVYYWGQGTQLTVSS
polyreactivity (PSR sort gate): low polyreactivity

sequence-input: QVQLVESGGGLVQAGGSLRLSCAASGLILYWYAMGWYRQAPGKERELVAVITRSGRTNYADSVKGRFTSSRDNAKNTVYLQMNSLKPEDTAVYYCAADYYTSFYSWPPYDYWGQGTQVTVSS
polyreactivity (PSR sort gate): low polyreactivity

sequence-input: QVQLVESGGGLVQAGGSLRLSCAASGFTFRYYAMGWYRQAPGKERELVAAITRRSGSTYYADSVKGRFTISRDNAKNTVYLQMNSLKPEDTAVYYCAARASTIMGSWGQGTQVTVSS
polyreactivity (PSR sort gate): high polyreactivity

sequence-input: QVQLVESGGGLVQAGGSLRLSCAASGSIFTIYAMGWYRQAPGKERELVATITGGGGSTYYADSVKGRFTISRDNAKNTVYLQMNSLKPEDTAVYDCAADSPGWTYTSRSYDYWGQGTQVTVSS
polyreactivity (PSR sort gate): low polyreactivity

sequence-input: QVQLVESGGGLVQAGGSLRLSCAASGSTFAIDAMGWDRQAPGQDRELVASISGGSTNYADSVKGRVTISRDKAKNTVDLQRNSLKPEDTAVYYCAARGALQHWYRYDYWGQGTQGTVSS
polyreactivity (PSR sort gate): low polyreactivity

sequence-input: QVQLVESGGGLVQAGGSLRLSCAASGFTFHKYAMGWYRQAPGKERELVAAITSSGGSTYYADSVKGRFTISRDNAKNTVYLQMNSLKPEDTAVYYCNARGGGRKSYDYWGQGTQVTVSS
polyreactivity (PSR sort gate): high polyreactivity

====

experiment: yeast display, Sf9 membrane polyspecificity reagent, FACS + sequencing; frameworks hold sequencing errors
measurement-name: polyreactivity (PSR sort gate)

sequence-input: QVQLVESGGGLVQAGGSLRLSCAASGSTFRVYAMGWYRQAPGTERELVATINVSGGSTYYADSVKGRFTISRDNAKNTVYLQMNSLKPEDTAVYYCAKEDGAYGYPFDYWGQGTQVTVSS
result: low polyreactivity
//
sequence-input: QVQLVESGGGLVQAGGSLRLSCAASGFTFQINTMGWYRQAPGKERELVAAINYSGGSTYYADSVKGRFTISRDNAKNTDYLQMNSLKPEDTAVYYCATDHYRNPWRWYRYGYWGQGTQVTVSS
result: low polyreactivity

====

experiment: yeast display, Sf9 membrane polyspecificity reagent, FACS + sequencing; frameworks hold sequencing errors

sequence-input: QVQLQESGCRLVQAGGRLRMSCAASGNIIDADIMGWYRQAPGKERELVASITDGRRTNYADSVKGRYTNSRDSEKNTVYMQMNSLKPEDTAVYYCAAIAYPVVPTYFDYDSDYFHWGQGTQVTVSS
polyreactivity (PSR sort gate): high polyreactivity

sequence-input: QVQLVESGGGLVQAGGSLRLSCAASGSTFGGYVMGWYRQAPGKERELVAAISGNGASTTYADSVKGRFTISRDNAKNTFYLQMNSLIPEDTAVFYCAAMYRKAHSDYDYWGQGSQVTVSS
polyreactivity (PSR sort gate): low polyreactivity

sequence-input: QVQLVESGGGLVQAGGSLRLSCAASGRTSSSNAMGWYRQAPGKERELVATISRTGSTYYADSVKGRFTISRDNAKNTVYLQMNSLKPEDTAVYYCNRYFSEALLHGSCYNRYYYWGQGTQVTVSS
polyreactivity (PSR sort gate): low polyreactivity

sequence-input: QVQLVESGGGLVQAGGSLRLSCAASGRIFGAYAMGWYRQAPGKERELVAASSSGGSTYYADSVKGRFTISRDNAKNTVSLQMKSLNPEDTAVYYCAASSGNGYGYWGQGTQVSVSS
polyreactivity (PSR sort gate): high polyreactivity

sequence-input: QVQLVESCGGIVQAGGSLRLRCAASGFIFEYYAMVWYRQAPGKERELVAAINWGGGRTRYADSVKGRFTISPYNAKNTVYLQMNSLKPEDTAVYYCAARYGYRYDSWGQGTQVTVSS
polyreactivity (PSR sort gate): high polyreactivity

sequence-input: QVQLVESGGGLVQAGGSLRLSCAASGRTFPNNAMGWYRQAPGKERELVAVITWSGGSTYYADSVKGRFTISRDNAKNTVYLQMNSLKPEDTAVYYCATDYTGKWKDHYYYWGQGTQVTVSS
polyreactivity (PSR sort gate): low polyreactivity

sequence-input: HVQLVESGGGLVQAGGSLPLSCAASGRTFDHYAMGWYRQAPGKEREFVAAITSGGSTYYADSVKGRFRISRDNAKNTVYLQMNSLKPVDTAVYYCNNDSSFWGYYIAQVNERDYWGQGTQVTVSS
polyreactivity (PSR sort gate): low polyreactivity

sequence-input: QVQLVESGGGLVQAGGSLRLSCAASGSIFYYYAMGWYRQAPGKERELVAAISRSGGSTYYADSVKGRFTISRDNAKNTVYLQMNSLKPEDTAVYYCNVAYGLQPYDYWGQGTQVTVSS
polyreactivity (PSR sort gate): high polyreactivity

sequence-input: QVQLVESGGGLVQAGGSLRLSCAASGSTFYWYAMGWYRQAPGKERELVASISWSGGRTYYADSVKGRFTISRDTAKNTVYLQMNSLKPEDTAVYYCAARRKGRYYYWGQGTQVTVSS
polyreactivity (PSR sort gate): high polyreactivity

sequence-input: QVQLVESGGGLVQAGGSLRLSCAASGSTFQYYAMGWYRQAPGKERELVAAISSGGSTYYADSVKGRFTISRDIAKNTVYLQMNSLKPEDTAVYYCAAYEYDGDYGYCGQGTQVTVSS
polyreactivity (PSR sort gate): high polyreactivity

sequence-input: QVQLVESGGGLVQAGGSLRLSCAASGSIFTIYAMGWYRQAPGKERELVAAISFSGGSTYYADSVKGRFTISRDNAKNSVYLQMNSLKPEDTAVYYCAADGGFTYDYWGQGTQVTVSS
polyreactivity (PSR sort gate): low polyreactivity
